Target: NanoLuc VHL fusion protein (Homo sapiens (Human), UniProt P40337)
Sequence (P40337 whole entry, looked up, the tested form may be a part): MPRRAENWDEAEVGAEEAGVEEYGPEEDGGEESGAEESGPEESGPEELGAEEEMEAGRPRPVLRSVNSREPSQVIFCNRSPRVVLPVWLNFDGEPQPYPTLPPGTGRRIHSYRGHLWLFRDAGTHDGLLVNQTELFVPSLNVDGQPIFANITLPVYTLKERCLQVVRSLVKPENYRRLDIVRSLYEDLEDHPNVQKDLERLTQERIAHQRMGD
Sequence (Q15370 whole entry partner, looked up, the tested form may be a part): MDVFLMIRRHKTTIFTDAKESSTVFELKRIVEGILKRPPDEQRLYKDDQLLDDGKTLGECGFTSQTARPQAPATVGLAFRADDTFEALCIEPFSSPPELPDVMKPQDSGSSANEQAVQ
Sequence (Q15369 whole entry partner, looked up, the tested form may be a part): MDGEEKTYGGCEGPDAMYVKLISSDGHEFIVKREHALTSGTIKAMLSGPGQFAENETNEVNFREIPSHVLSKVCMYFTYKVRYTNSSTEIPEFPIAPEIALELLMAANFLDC
Assay: VHL HEK-293 BRET Assay (NanoBRET Target Engagement)
Format: cell-based
Details: geometric mean where more than one measurement
readout.label: IC50

Recorded IC50, per entry:
Cc1ncsc1-c1ccc([C@]2(C)NC(C3C[C@@H](O)CN3C(=O)C(c3cn(C)nn3)C(C)C)=NC2=O)cc1 (single isomer, unassigned) [Example 118.3] | 100 µM
C#Cc1cccc(Nc2ncnc3cc(OCCOC)c(OCCOCC#CC#CCOc4cc(C(C(=O)N5C[C@H](O)CC5C5=NC(=O)[C@](C)(c6ccc(-c7scnc7C)cc6)N5)C(C)C)on4)cc23)c1 (single isomer, unassigned) [Example 1004.1] | 68.3 µM
Cc1cc([C@H](C(=O)N2C[C@H](O)C[C@H]2C2=NOC(c3ccc(Br)cc3)(C(F)(F)F)N2)C(C)C)on1 (single isomer, unassigned) [Example 133.3] | 22.6 µM

Task item: Find the recorded IC50 belonging to Cc1cc([C@H](C(=O)N2C[C@H](O)CC2C2=NOC3(CCCc4ccccc43)N2)C(C)C)on1 (single isomer, unassigned) [Example 131.4] and report it.
Reply: 20 µM

Task item: // IC50 lookup, key: Cc1ncsc1-c1ccc([C@]2(C)NC(C3C[C@@H](O)CN3C(=O)[C@H](C(C)C)N3Cc4ccccc4C3=O)=NC2=O)cc1 (single isomer, unassigned) [Example 123.2]
Reply: 5.48 µM

Task item: May I ask what IC50 has been recorded for Cc1cc([C@@H](C(=O)N2C[C@H](O)C[C@H]2C2=NOC(C)(c3ccc(-c4scnc4C)cc3)N2)C(C)C)on1 (single isomer, unassigned) [Example 129.2] ?
Reply: 77.9 µM

----------
Target: VHL Elongin B/C complex (Homo sapiens (Human), UniProt P40337)
Experiment: Fluorescence Polarization (FP) VHL Binding Assay
Conditions: VHL binding, FP assay; geometric mean where more than one measurement
readout.label: IC50

// solved cases for IC50 follow
Cc1cc(C(C(=O)N2C[C@H](O)CC2C2=NS(=O)(=O)CN2)C(C)C)on1 (single isomer, unassigned) [Example 137.1] | ≥ 400 µM
Cc1cc(C(C(=O)N2C[C@H](O)CC2C2=NC(=O)C(C)(c3ccc(-c4cccc(=O)n4C)cc3)N2)C(C)C)on1 (single isomer, unassigned) [Example 108.4] | > 400 µM

Task item: // IC50 lookup, key: Cc1cc([C@@H](C(=O)N2C[C@H](O)C[C@H]2C2=NOC3(CCCC3)N2)C(C)C)on1 [Example 127.1]
Reply: ≥ 400 µM

----------
Target: VHL Elongin B/C complex (Homo sapiens (Human))
Assay: Fluorescence Polarization (FP) VHL Binding Assay
Details: VHL binding, FP assay; geometric mean where more than one measurement
readout.label: IC50

Cc1cc(C(C(=O)N2C[C@H](O)CC2C2=NS(=O)(=O)CN2)C(C)C)on1 (single isomer, unassigned) [Example 137.3] | ≥ 400 µM
CC/C(=C(\c1ccc(O)cc1)c1ccc(OCCN(C)C(=O)CCCOCCOc2cc(C(C(=O)N3C[C@H](O)CC3C3=NC(=O)[C@](C)(c4ccc(-c5scnc5C)cc4)N3)C(C)C)on2)cc1)c1ccccc1 (single isomer, unassigned) [Example 1003.2] | ≥ 400 µM

Task item: Look at this compound and give its reported IC50. Cc1cc(C(C(=O)N2C[C@H](O)CC2C2=NC(=O)C(C)(c3ccc(-c4scnc4C)cc3)N2)C(C)C)on1 (single isomer, unassigned) [Example 104.2]
Reply: > 400 µM

Ref: patent US11242344B2
